molecular target: human mGlu2 receptor (Homo sapiens); construct: expressed in transfected cells; host or cells: CHO cells (membrane preparation); assay: [35S]GTPγS binding assay (mGluR2 negative allosteric modulation); assay type: biochemical; details: membranes from CHO cells transfected with human mGlu2 receptor; glutamate 60 μM; pIC50 = −log IC50 (M); read-out: GTPγS - hmGluR2 anGT pIC50 (converted)
Measurement kind: IC50 (M)

Which measured IC50 value corresponds to CNc1cc(-c2cnn3c2C(=O)N(c2ccc(Cl)c(Cl)c2)CC3CF)ccn1 (centres unmarked) [compound 93] ?
1.82e-08

Which measured IC50 value corresponds to CCCc1ccc(N2C[C@H](C)n3ncc(-c4ccnc(C)c4)c3C2=O)cc1 [compound 66] ?
4.07e-08

Which measured IC50 value corresponds to CC(C)c1cc(-c2cnn3c2C(=O)N(c2ccc(Cl)c(Cl)c2)C[C@@H]3C)ccn1 [compound 124] ?
3.02e-09

Which measured IC50 value corresponds to COc1ccc(N2C[C@H](C)n3ncc(-c4ccnc(C)c4)c3C2=O)cc1F [compound 35] ?
6.03e-07

Which measured IC50 value corresponds to COc1cc(N2C[C@H](C)n3ncc(-c4cc(C)nc(C)c4)c3C2=O)ccc1C(F)(F)F [compound 51] ?
1.1e-08

[A] CNc1cc(-c2cnn3c2C(=O)N(c2ccc(C(F)(F)F)c(C)c2)C[C@@H]3C)ccn1 [compound 251]
[B] Cc1cc(-c2cnn3c2C(=O)N(c2ccc(Cl)c(Cl)n2)C[C@@H]3C)ccn1 [compound 202]
Select the item with the higher value of IC50 from the options A and B listed. Pick one; state its label.
B

* * *

Measurement kind: melting point (°C)

[I] CC(O)c1cc(-c2cnn3c2C(=O)N(c2ccc(C(F)(F)F)cc2)C[C@@H]3C)ccn1 (stereo partly shown)
[II] CN(C)c1cc(-c2cnn3c2C(=O)N(c2ccc(Cl)c(Cl)c2)CC3CF)ccn1 (single isomer, unassigned) [compound 91]
Select the item with the higher value of melting point from the options I and II listed. Pick one; state its label.
I

* * *

Measurement kind: melting point (°C)

Which measured melting point value corresponds to Cc1cc(-c2cnn3c2C(=O)N(c2ccc(S(F)(F)(F)(F)F)cc2)C[C@@H]3C)cc(C)n1 ?
233.1

[P] CCOc1cc(N2C[C@H](C)n3ncc(-c4cc(C)nc(C)c4)c3C2=O)ccc1C(F)(F)F
[Q] Cc1cc(-c2cnn3c2C(=O)N(c2ccc(Cl)cc2)C[C@@H]3C)cc(C)n1
Could you tell me which of P and Q has the lower melting point reading? Pick one; state its label.
Q

* * *

Molecular target: human mGlu2 receptor (Homo sapiens, UniProt Q14416)
Construct: expressed in transfected cells; host or cells: CHO cells (membrane preparation)
Sequence (Q14416 19-872): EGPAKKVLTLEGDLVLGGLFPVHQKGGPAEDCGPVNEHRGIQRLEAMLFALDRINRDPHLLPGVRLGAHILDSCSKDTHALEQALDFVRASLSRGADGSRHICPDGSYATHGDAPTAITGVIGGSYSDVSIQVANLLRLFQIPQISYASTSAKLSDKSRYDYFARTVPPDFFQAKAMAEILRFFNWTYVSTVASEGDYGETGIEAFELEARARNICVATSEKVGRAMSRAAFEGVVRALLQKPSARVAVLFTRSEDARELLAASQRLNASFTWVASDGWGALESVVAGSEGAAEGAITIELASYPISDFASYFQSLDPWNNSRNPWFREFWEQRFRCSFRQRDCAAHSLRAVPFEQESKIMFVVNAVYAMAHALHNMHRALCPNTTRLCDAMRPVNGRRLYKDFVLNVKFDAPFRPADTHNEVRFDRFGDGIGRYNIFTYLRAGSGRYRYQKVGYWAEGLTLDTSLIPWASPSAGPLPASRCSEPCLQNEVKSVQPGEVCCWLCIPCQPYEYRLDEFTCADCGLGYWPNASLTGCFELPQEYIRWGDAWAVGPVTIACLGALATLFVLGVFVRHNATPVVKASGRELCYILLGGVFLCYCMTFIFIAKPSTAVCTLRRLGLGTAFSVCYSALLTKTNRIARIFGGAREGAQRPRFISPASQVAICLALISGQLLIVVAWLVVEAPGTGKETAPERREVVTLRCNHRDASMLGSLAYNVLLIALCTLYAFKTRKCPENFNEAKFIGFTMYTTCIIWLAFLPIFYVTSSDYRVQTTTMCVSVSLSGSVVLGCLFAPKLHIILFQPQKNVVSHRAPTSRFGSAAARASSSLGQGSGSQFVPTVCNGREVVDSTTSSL
Assay: [35S]GTPγS binding assay (mGluR2 negative allosteric modulation)
Format: biochemical
Conditions: relative maximal effect: maximal % inhibition relative to the control glutamate response; read-out: GTPγS - hmGluR2 anGT Emax
Experimental: 1) [^35S]GTPγS binding assay The [^35S]GTPγS binding assay is a functional membrane-based assay used to study G-protein coupled receptor (GPCR) function whereby incorporation of a non-hydrolysable form of GTP, [^35S]GTPγS (guanosine 5′-triphosphate, labelled with gamma-emitting ^35S), is measured. […] CHO-cells were cultured to pre-confluence and stimulated with 5 mM butyrate for 24 h. […] Protein concentration was determined by the Bradford method (Bio-Rad, USA) with bovine serum albumin as standard. […]
Measurement kind: Emax (%)

Identify the measured Emax of C[C@H]1CN(c2ccc(Cl)c(Cl)c2)C(=O)c2c(-c3ccncc3)cnn21 [compound 57] for human mGlu2 receptor (Homo sapiens, UniProt Q14416).
104

Identify the measured Emax of CNc1cc(-c2cnn3c2C(=O)N(c2ccc(C(F)(F)F)cc2)C[C@@H]3C)cc(F)n1 [compound 243] for human mGlu2 receptor (Homo sapiens, UniProt Q14416).
116

Identify the measured Emax of COc1cc(N2C[C@H](C)n3ncc(-c4ccnc(C)c4)c3C2=O)cc(F)c1F [compound 84] for human mGlu2 receptor (Homo sapiens, UniProt Q14416).
104

Identify the measured Emax of COc1ccc(-c2cnn3c2C(=O)N(c2ccc(C(F)(F)F)cc2)C[C@@H]3C)cn1 [compound 150] for human mGlu2 receptor (Homo sapiens, UniProt Q14416).
103

Identify the measured Emax of CCN(C)c1cc(-c2cnn3c2C(=O)N(c2ccc(C(F)(F)F)cc2)C[C@@H]3C)ccn1 [compound 253] for human mGlu2 receptor (Homo sapiens, UniProt Q14416).
111

Identify the measured Emax of Cc1cc(-c2cnn3c2C(=O)N(c2ccc(C(F)(F)F)c(CF)c2)C[C@@H]3C)ccn1 [compound 98] for human mGlu2 receptor (Homo sapiens, UniProt Q14416).
111

Identify the measured Emax of Cc1cc(-c2cnn3c2C(=O)N(c2ccc(F)c(F)c2)C[C@@H]3C)ccn1 [compound 25] for human mGlu2 receptor (Homo sapiens, UniProt Q14416).
103

Identify the measured Emax of CC(C)Nc1cc(-c2cnn3c2C(=O)N(c2ccc(C(F)(F)F)c(Cl)c2)C[C@@H]3C)ccn1 [compound 262] for human mGlu2 receptor (Homo sapiens, UniProt Q14416).
109

Identify the measured Emax of Cc1cc(-c2cnn3c2C(=O)N(c2ccc(C(F)(F)F)c(OCCF)c2)C[C@@H]3C)ccn1 [compound 48] for human mGlu2 receptor (Homo sapiens, UniProt Q14416).
100

Identify the measured Emax of CNc1cc(-c2cnn3c2C(=O)N(c2ccc(C(F)(F)F)c(Cl)c2)C[C@@H]3C)cc(C#N)n1 [compound 95] for human mGlu2 receptor (Homo sapiens, UniProt Q14416).
110

Identify the measured Emax of Cc1cc(N2C[C@H](C)n3ncc(-c4ccnc(NC(C)C)c4)c3C2=O)ccc1C(F)(F)F [compound 267] for human mGlu2 receptor (Homo sapiens, UniProt Q14416).
107

Identify the measured Emax of Cc1cc(-c2cnn3c2C(=O)N(c2ccc(Cl)c(OC(F)F)c2)C[C@@H]3C)ccn1 [compound 163] for human mGlu2 receptor (Homo sapiens, UniProt Q14416).
103

Identify the measured Emax of Cc1cc(-c2cnn3c2C(=O)N(c2ccc(F)cc2)C[C@@H]3C)ccn1 [compound 28] for human mGlu2 receptor (Homo sapiens, UniProt Q14416).
105

Identify the measured Emax of COc1ccc(N2C[C@H](C)n3ncc(-c4ccnc(C)c4)c3C2=O)cc1F [compound 35] for human mGlu2 receptor (Homo sapiens, UniProt Q14416).
100

Identify the measured Emax of Cc1cc(-c2cnn3c2C(=O)N(c2ccc(C(F)(F)F)cc2)C[C@@H]3C)cc(C)n1 [compound 14] for human mGlu2 receptor (Homo sapiens, UniProt Q14416).
104

Identify the measured Emax of CCOc1nc(N2C[C@H](C)n3ncc(-c4ccnc(C)c4)c3C2=O)ccc1C(F)(F)F [compound 189] for human mGlu2 receptor (Homo sapiens, UniProt Q14416).
102
